System: SW-620 colon
Experiment: NCI tumour cell line growth inhibition, 48 h; in the data active means GI50 below about 0.43 µM; inactive means the rest
I would appreciate it if you answered using one of these outcomes: active, inactive

Completed entries (count: 6):
>>> print(df.to_string())
                                   molecule           tgt  classification
0  CCOC(=O)CCC(NC(=O)c1ccc(Sc2nc3cc(N)cc(N)c3nc2-c2ccccc2)cc1)C(=O)OCC (centres undefined)  SW-620 colon        inactive
1  Cc1ccc(-c2nc3nc(-c4ccc(Br)cc4)nc(N4CCCNCC4)c3o2)cc1  SW-620 colon        inactive
2      COc1ccc(/C=C/C(=O)c2ccc(Cl)cc2Cl)cc1  SW-620 colon        inactive
3  Nc1nc(/C=C\c2ccc([N+](=O)[O-])s2)nc(N2CCOCC2)n1  SW-620 colon        inactive
4  Cc1ccc(C2C3Cc4ccccc4C3=NN2c2ccc(S(=O)(=O)NC(=O)NC3CCCCC3)cc2)cc1 (centres undefined)  SW-620 colon        inactive
5  O=C1CCC/C=C\C[C@H]2C=CC(=O)/C2=C/C[C@H](CCc2cccc(C(F)(F)F)c2)O1  SW-620 colon        inactive

QUERY: Hey, what did the test say about CN1C[C@@H](c2ccc(Cl)cc2)[C@]2(NC(=S)N(c3ccc(F)c(Cl)c3)C2=O)[C@@]12C(=O)NC1C=CC(Cl)=C[C@H]12 (some centres undefined) ?
RESULT: inactive

QUERY: Look up the recorded call for C=CC(C)c1cccc(C=O)c1O (centres undefined) in this test.
RESULT: inactive

QUERY: Look up the recorded call for COc1cc(-c2nn(-c3ccc(NC(=O)NCCNS(=O)(=O)c4ccc(F)cc4)cc3)cc2-c2ccncc2)ccc1Cl in this test.
RESULT: inactive

QUERY: Fill in: this test's call for CCCC(=O)OCC1OC(n2cnc3c(=S)nc(N)[nH]c32)C(OC(=O)CCC)C1OC(=O)CCC (centres undefined) is ___
RESULT: inactive

====

System: SF-295 CNS
Assay: NCI tumour cell line growth inhibition, 48 h
Collected TGI values appear next to each entry.

QUERY: I would be grateful if you could share the reported TGI for CCc1n[nH]c(=O)n1N1C(=O)C2CCCCC2C1=O (stereo unspecified) .
RESULT: > 100 µM

QUERY: // TGI lookup, key: Cn1cc/c(=N\N=c2/ccn(C)c3ccccc23)c2ccccc21
RESULT: 30.9 µM

====

Tested on: NCI-H23 lung
Assay: NCI tumour cell line growth inhibition, 48 h
MEASURED_METRIC: TGI

In [3]: df
Out[3]:
                                   compound  assay_value
0  CC(C)(Br)C(Br)CCC1(C(Br)CBr)CO1 (centres undefined)      > 10 µM
1  Nc1nc(N)c2nc(CNc3ccc(C(=O)NC(CCC(=O)O)C(=O)O)cc3F)cnc2n1 (centres undefined)     > 100 µM
2  CC1(C)Cc2c(c3ccccc3c3nc4c(nc23)c2c(c3ccccc34)OC(C)(C)C2)O1     > 100 µM

QUERY: What does the record list as TGI for CC(C)N(Cc1c(F)cccc1F)c1ccc(CO)c(Cl)c1 ?
RESULT: 32.4 µM

QUERY: Fill in the blank: the reported TGI of CCOC(=O)CCC(NC(=O)c1ccc(Sc2nc3cc(N)cc(N)c3nc2-c2ccccc2)cc1)C(=O)OCC (centres undefined) is ____.
RESULT: > 58 µM

QUERY: For C[C@@H](CO)C1=C(O)c2ccc3c(c2C(=O)C1=O)CCCC3(C)C , what is its reported TGI?
RESULT: 56.1 µM

QUERY: # query: TGI of entry Cc1nc2ccc(Cl)cc2c(Cl)c1CCCl
RESULT: > 100 µM

====

System: UACC-257 melanoma
Test: NCI tumour cell line growth inhibition, 48 h; in the data active = GI50 below about 0.43 µM; inactive = the rest
Lab note: assign the record to one of True = active, False = inactive

                                   molecule  classification
0  C#C[C@@]1(O)[C@@H](CO)O[C@@H](n2cc(Br)c3c(N)ncnc32)[C@@H]1O           False
1  O=[N+]([O-])c1cccc2nc3ccccc3c(NCCN(CCO)CCO)c12            True
2                 O=C1OCC(C#Cc2ccccc2)=C1Br           False
3  COC(=O)C1=C(C(=O)OC)SC(=C(Cl)C(=S)Oc2ccccc2N)S1           False

QUERY: Please state the recorded outcome for this molecule: CC(C)N(Cc1c(F)cccc1F)c1ccc(CO)c(Cl)c1
RESULT: True

QUERY: What outcome does the record of this test show for COc1ccc(C2=C(c3cn(C)c4ccccc34)C(=O)OC2)cc1OC ?
RESULT: False

QUERY: Entry Nc1nc(/C=C\c2ccc([N+](=O)[O-])s2)nc(N2CCOCC2)n1 : call = ?
RESULT: False

QUERY: Recorded test outcome, item Nc1cc(N)c2nc(-c3ccccc3)c(NCCc3ccc(Cl)c(Cl)c3)nc2c1
RESULT: False

QUERY: What did the test return for NCCNC1=CC(=O)c2nc3ccccc3c3ccnc1c23 ?
RESULT: False

====

System: NCI-H522 lung
Test: NCI tumour cell line growth inhibition, 48 h
Where a SMILES comes first, the peptide text is derived from it. [ ]: non-standard residue; d: D form. The star is where a group is joined. ξ: configuration not given here. ξD = NC(CC(=O)O)C(=O)O; Boc = CC(C)(C)OC(=O)*; Aib = CC(C)(N)C(=O)O; OtBu = CC(C)(C)O*
TGI reference

COMPOUND	TGT	ASSAY_VALUE
CC(CO)CCNc1ncnc2c1ncn2CCC#N (configuration not stated)	NCI-H522 lung	> 100 µM
COC(=O)C(C)(C)NC(=O)C(C)(C)NC(=O)C(CC(=O)OC(C)(C)C)NC(=O)OC(C)(C)C (configuration not stated) (Boc-[ξD](OtBu)-[Aib]-[Aib]-OMe)	NCI-H522 lung	> 100 µM
N#CC1C(=O)C(=O)N(c2ccccc2)C1=O (configuration not stated)	NCI-H522 lung	> 100 µM

QUERY: Which measured TGI value corresponds to O=C1CCCC/C1=C(\Br)I ?
RESULT: 3.48 µM

QUERY: What measured TGI goes with C=CC[C@@]1(OC(C)=O)C(=O)C(=O)OC1C1COC(C)(C)O1 (some centres not stated) ?
RESULT: 19.6 µM

QUERY: Report TGI for S=c1oc(CCCCCCCCc2nn(CNc3ccccc3)c(=S)o2)nn1CNc1ccccc1 please.
RESULT: > 100 µM

QUERY: What TGI value was documented for this compound, ClC(Cl)c1nc(-c2ccccc2)n2nc(-c3ccccc3)cc2n1 ?
RESULT: > 100 µM

QUERY: Any idea what its TGI is? The compound is O=C1OC(c2ccccc2)=N/C1=C\c1ccc(Br)cc1
RESULT: > 100 µM

QUERY: For O=[N+]([O-])c1cccc2nc3ccccc3c(NCCN(CCO)CCO)c12 , what is its reported TGI?
RESULT: 0.00389 µM

QUERY: Quick one: TGI for O=S(=O)(SCCCCSS(=O)(=O)c1ccc(Cl)cc1)c1ccc(Cl)cc1 ?
RESULT: 17 µM

QUERY: Item CC(=O)OCCn1c(Cc2ccc(C)cc2)nn(C(C)=O)c1=O has what recorded TGI?
RESULT: > 100 µM

QUERY: # lookup: TGI of CC(=O)Nc1c(Br)cc2c(c1Br)Cc1cc(Br)ccc1-2
RESULT: > 100 µM

QUERY: Requested read-out: TGI. Entry: CCN(CC)CCNC(=O)c1cc2cc(NC(=O)c3cc4cc(N)ccc4[nH]3)ccc2[nH]1
RESULT: 46.7 µM

QUERY: Find the recorded TGI belonging to CC1=C(Cc2ccccc2)C(Cc2ccccc2)=C(C)S1=O and report it.
RESULT: 78.8 µM

QUERY: Fill in the blank: the reported TGI of Cc1ccc2cc3c(cc(C)c4ccccc43)c3c2c1CC3 is ____.
RESULT: > 100 µM

QUERY: What value of TGI has been reported for the following compound? O=C1CCc2c(Oc3ccc4c(c3)[C@H]3[C@@H](O4)[C@@H]3c3nc4ccc(C(F)(F)F)cc4[nH]3)ccnc2N1
RESULT: > 28.1 µM

QUERY: # query: TGI of entry O=C(O)CNS(=O)(=O)c1ccc(NC(=O)c2ccccc2[N+](=O)[O-])cc1
RESULT: > 100 µM

QUERY: Query (compound): COc1ccc(OC)c(/C=C/C(=O)N/N=C/c2ccccc2)c1 ; field requested: TGI
RESULT: 41.7 µM

QUERY: Find the recorded TGI belonging to O=C(O)CNCP(=O)(O)O and report it.
RESULT: > 100 µM

QUERY: Request the reported TGI associated with Nc1nc(N)c2nc(CNc3ccc(C(=O)NC(CCC(=O)O)C(=O)O)cc3F)cnc2n1 (configuration not stated)
RESULT: > 100 µM

QUERY: What does the data say about its TGI? Entry: CC1(C)COP(=S)(c2ccccn2)O[C@@H]1c1ccccc1 (some centres not stated)
RESULT: > 100 µM

QUERY: Sample CC1=NN(c2cccc(Cl)c2)C2(C1=Cc1ccccc1)C(Cl)C(=O)N2c1nc2ccccc2s1 (configuration not stated) — what was its TGI?
RESULT: 36 µM
